B1: glmS ribozyme (parent)
chain: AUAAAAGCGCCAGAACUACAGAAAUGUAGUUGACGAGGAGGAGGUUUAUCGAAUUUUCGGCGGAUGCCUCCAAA

Variants of: B1
Assay: self-cleavage kobs at 160 uM GlcN6P; higher = faster cleavage; RNA array
Settings: with glucosamine-6-phosphate
This sample holds only a part of the variants without activity.
ATTRIBUTE MEASURED: self-cleavage kobs at 160 uM GlcN6P

Guide cases for self-cleavage kobs at 160 uM GlcN6P, answers given:
A14C A15U C70A	0.000105 s⁻¹
G29C U56A	2.63e-05 s⁻¹
C8U A14C	< 1e-05 s⁻¹
A15G U65G	0.000133 s⁻¹
U31G A39C U45A	0.000229 s⁻¹

I have this variant here, G44U U49A U54A G62U , and I need its recorded self-cleavage kobs at 160 uM GlcN6P.
< 1e-05 s⁻¹

Also need A53C U54A , thanks.
0.000353 s⁻¹
